System: Candida albicans
Assay: Inhibition of Candida albicans at 100 uM concentration.
Assay type: functional

{"substance": "H-HFRWGKGV-NH2", "readout.units": "%", "inhibition at 100 µM": 41.8}
{"substance": "H-HFRWGKKV-NH2", "readout.units": "%", "inhibition at 100 µM": 41}
{"substance": "H-HFRWGAPV-NH2", "readout.units": "%", "inhibition at 100 µM": 26.2}
{"substance": "H-HFRWGKPL-NH2", "readout.units": "%", "inhibition at 100 µM": 87.4}
{"substance": "H-HFRWGKSV-NH2", "readout.units": "%", "inhibition at 100 µM": 32.3}
{"substance": "H-HFRWGKPA-NH2", "readout.units": "%", "inhibition at 100 µM": 68.4}
{"substance": "H-HFRWGKEV-NH2", "readout.units": "%", "inhibition at 100 µM": 11.2}
